- Test system: ACHN renal
- protocol details: NCI tumour cell line growth inhibition, 48 h
The entries below are paired with their reported TGI.

Ask: Param item = `COc1ccc(-c2coc3cc(OC)cc(O)c3c2=O)cc1` ; retrieve measured TGI.
Result: > 100 µM

Ask: Param item = `O=C(CSc1nnc(-c2ccc(N=Cc3ccc(Cl)cc3)cc2)o1)Nc1cccc(Cl)c1` ; retrieve measured TGI.
Result: > 100 µM

Ask: Param item = `Cc1cccc(NC(=O)CC#N)c1Cl` ; retrieve measured TGI.
Result: > 100 µM

***
Ask: Param item = `C=C(CN1CCN(c2cccc(F)c2)CC1)c1ccc(C(=O)Nc2ccccc2N)cc1` ; retrieve measured TGI.
Result: 90.7 µM

Ask: Param item = CN1OC2OC(=O)OC2[C@H]1[C@H]1O[C@H](c2ccccc2)OC1(C)c1cc(OC(=O)c2ccccc2)ccc1OC(=O)c1ccccc1 (stereo not given in full) ; retrieve measured TGI.
Result: > 50 µM

Ask: Param item = `COc1ccc(Nc2ncccc2C(=O)NCc2cn(Cc3cccc(Oc4ccccc4)c3)nn2)cc1` ; retrieve measured TGI.
Result: > 100 µM

Ask: Param item = `Cn1cnc([N+](=O)[O-])c1Sc1nc(N)nc2c1ncn2Cc1ccccc1` ; retrieve measured TGI.
Result: 31.3 µM

Ask: Param item = O=C1NN(c2ccccc2)C(=O)C2C3c4ccccc4C(c4ccccc43)C12 (stereo not given) ; retrieve measured TGI.
Result: > 100 µM

Ask: Param item = `N=c1ccn2c(n1)O[C@@H]1[C@@H](O)[C@H](CO)O[C@@H]12` ; retrieve measured TGI.
Result: > 100 µM

Ask: Param item = `N=c1oc2c(Cl)cc(Cl)cc2cc1C(=O)Nc1ccccn1` ; retrieve measured TGI.
Result: 64.4 µM

====

- Tested on: COLO 205 colon
- protocol details: NCI tumour cell line growth inhibition, 48 h
The entries below are paired with their reported TGI.
Give a bare numeral; the unit µM is implied.

Ask: Param item = O=C(N/C(=C\c1ccccc1)C1Nc2ccccc2C(=O)O1)c1ccccc1 (configuration not stated) ; retrieve measured TGI.
Result: 80.9

Ask: Param item = Cc1ccc(NC(=O)c2nc(S(C)=O)oc2-c2ccc(F)cc2)cc1Nc1nccc(-c2cccnc2)n1 (configuration not stated) ; retrieve measured TGI.
Result: 4.41

Ask: Param item = `Cn1cnc([N+](=O)[O-])c1Sc1nc(N)nc2c1ncn2Cc1ccccc1` ; retrieve measured TGI.
Result: 32.1

Ask: Param item = `O=c1cccc(C#CC#C/C=C/CO)o1` ; retrieve measured TGI.
Result: 3.56

***
Ask: Param item = `COc1cc(NC(N)=NCCC(C)(C)c2ccc(C(F)(F)F)cc2)ncc1C#N` ; retrieve measured TGI.
Result: 3.21

Ask: Param item = `CCN(CC)c1nc(N(C)C)c2cc(OC)ccc2n1` ; retrieve measured TGI.
Result: 28.2

====

The entries below are paired with their reported TGI.
- Test system: RPMI-8226 leukemia
- protocol details: NCI tumour cell line growth inhibition, 48 h

Ask: Param item = CC1(C)C2CCC1(CC(=O)O)C(Cl)C2 (configuration not stated) ; retrieve measured TGI.
Result: > 100 µM

Ask: Param item = `CN(C)/C=N/S(=O)(=O)c1nn2c(C=O)c(-c3ccc(-c4ccc([N+](=O)[O-])cc4)o3)nc2s1` ; retrieve measured TGI.
Result: 13.5 µM

Ask: Param item = `COc1ccc(Nc2ncccc2C(=O)NCc2cn(Cc3cccc(Oc4ccccc4)c3)nn2)cc1` ; retrieve measured TGI.
Result: > 100 µM

***
Ask: Param item = `COc1ccc(/C=C/C(=O)c2ccc(Nc3ccnc4cc(Cl)ccc34)cc2)cc1` ; retrieve measured TGI.
Result: > 55.6 µM

Ask: Param item = `O=C1c2cccnc2C(=O)c2c1c(C(=O)OCCN1CCOCC1)c1ccccn21` ; retrieve measured TGI.
Result: 4.65 µM

====

The entries below are paired with their reported TGI.
- System: A549 NSCLC
- protocol details: NCI tumour cell line growth inhibition, 48 h

Worked examples, 5 compounds total:
Ask: Param item = `O=C1c2cccnc2C(=O)c2c1c(C(=O)OCCN1CCOCC1)c1ccccn21` ; retrieve measured TGI.
Result: 1.17 µM

Ask: Param item = O=C1C(N2C(=O)c3ccccc3C2=O)CN1C(COCc1ccccc1)c1ccc(OCc2ccccc2)cc1 (stereo not given) ; retrieve measured TGI.
Result: > 100 µM

Ask: Param item = CC(O[Si](C)(C)C)C1C=CC(C)n2c(=O)n(-c3ccccc3)c(=O)n21 (stereo not given) ; retrieve measured TGI.
Result: > 100 µM

Ask: Param item = `Cc1nc(C)c(N2CCN(C#N)CC2)c(=O)[nH]1` ; retrieve measured TGI.
Result: > 100 µM

Ask: Param item = `CCNCCNC(=O)c1ccc(Br)cc1` ; retrieve measured TGI.
Result: > 100 µM

Then this compound:
Ask: Param item = CC([O-])C(=O)[O-].NCC1CCC1CN.[Pt+4] (stereo not given) ; retrieve measured TGI.
Result: > 10 µM

====

- Tested on: MDA-MB-435
- protocol details: NCI tumour cell line growth inhibition, 48 h
The entries below are paired with their reported TGI.

Ask: Param item = `CCc1n[nH]c(=O)n1NC(=O)/C=C\C(=O)O` ; retrieve measured TGI.
Result: > 100 µM

***
Ask: Param item = O=C(N/C(=C\c1ccccc1)C1Nc2ccccc2C(=O)O1)c1ccccc1 (stereo not given) ; retrieve measured TGI.
Result: > 100 µM

Ask: Param item = `COc1cc(OC)nc(Nc2c(C#N)c3nc4ccccc4n3c3ccccc23)n1` ; retrieve measured TGI.
Result: > 100 µM

Ask: Param item = `COc1ccc(Nc2ncccc2C(=O)NCc2cn(Cc3cccc(Oc4ccccc4)c3)nn2)cc1` ; retrieve measured TGI.
Result: 4.34 µM

Ask: Param item = `O=C(CN1CCN(c2ccc(Cl)cc2)CC1)N1CCN(c2nnc(-c3ccccc3)c(-c3ccccc3)n2)CC1` ; retrieve measured TGI.
Result: > 100 µM

====

The entries below are paired with their reported TGI.
- System: PC-3 prostate
- protocol details: NCI tumour cell line growth inhibition, 48 h

Ask: Param item = `O=C(CCl)Nc1ccc2c(c1)C(=O)c1ccc(NC(=O)CCl)cc1C2=O` ; retrieve measured TGI.
Result: 2500 nM

Ask: Param item = `COc1ccc(Nc2ncccc2C(=O)NCc2cn(Cc3cccc(Oc4ccccc4)c3)nn2)cc1` ; retrieve measured TGI.
Result: > 100000 nM

Ask: Param item = `Cc1c2cccc-2c(OCCO)cc2c1[nH]c1ccccc12` ; retrieve measured TGI.
Result: 7890 nM

Then this molecule:
Ask: Param item = `CCN1CCN(C(=O)[C@]23CCC(C)(C)C[C@@H]2C2=CC[C@@H]4[C@@]5(C)C/C(=C/c6cccnc6)C(=O)C(C)(C)[C@@H]5CC[C@@]4(C)[C@]2(C)CC3)CC1` ; retrieve measured TGI.
Result: 2790 nM

====

- Test system: HCC-2998 colon
- protocol details: NCI tumour cell line growth inhibition, 48 h
The entries below are paired with their reported TGI.
Give a bare numeral; the unit µM is implied.

Ask: Param item = CSc1nc2c(c(=O)[nH]1)C(c1ccc(Cl)cc1)C1=C(N2)/C(=C/c2ccc(Cl)cc2)CNC1 (stereo not given) ; retrieve measured TGI.
Result: 3.57

***
Ask: Param item = `CCCN1CCN(c2ccc3nc(-c4ccc5nc(-c6ccc(OCC)c(OCC)c6)[nH]c5c4)[nH]c3c2)CC1` ; retrieve measured TGI.
Result: 1.16

Ask: Param item = `COc1cc2c3c(n(CCCCl)c(=O)c2cc1OC)-c1ccc(C#N)cc1C3=O` ; retrieve measured TGI.
Result: 25.9

====

- Test system: SN12C renal
- protocol details: NCI tumour cell line growth inhibition, 48 h; in the data active means GI50 below about 0.43 µM; inactive means the rest
*1 amine or outer side, *2 acyl side, *3 side chain or, on linkers, in order; H or OH if unused. Where a SMILES comes first, the peptide text is derived from it. Bridges are numbered along the chain shown (N, C = ends). [ ]: non-standard residue; d: D form. The star is where a group is joined. Phe(3-Me) = Cc1cccc(C[C@H](N)C(=O)O)c1; NH(4-Cl-2-F-phenyl) = Fc1cc(Cl)ccc1N*; Pro(4R-Me) = C[C@H]1CN[C@H](C(=O)O)C1; Propanoyl(3-NMe2) = CN(C)CCC(=O)*; Hyp = O=C(O)[C@@H]1C[C@@H](O)CN1; aThr = C[C@H](O)[C@H](N)C(=O)O; Pip = O=C(O)[C@@H]1CCCCN1; CO = O=C([*:1])[*:2]
The reply should name one outcome from active, inactive

Ask: Please state the recorded outcome for this compound: Cc1cccc(C[C@H](NC(=O)Nc2ccc(Cl)cc2F)C(=O)N[C@@H]2C(=O)N3C[C@H](OC(=O)CCN(C)C)C[C@H]3C(=O)N3CCCC[C@H]3C(=O)N[C@@H](C)C(=O)N3C[C@H](C)C[C@H]3C(=O)O[C@H]2C)c1 ({NH(4-Cl-2-F-phenyl)-CO}-[Phe(3-Me)][aThr][Hyp](Propanoyl(3-NMe2))[Pip]A[Pro(4R-Me)]; ester 2-C)
Result: active

***
Ask: Please state the recorded outcome for this compound: `CC(C)Oc1ccc(C(=O)N[C@H](CNC(=O)CN(C)C)Cc2ccc(-c3cn4cccc([C@H](C)O)c4n3)cc2)cc1Cl`
Result: active

Ask: Please state the recorded outcome for this compound: `O=C(/C=C/c1cccnc1)c1ccccc1O`
Result: inactive

Ask: Please state the recorded outcome for this compound: `CC(=O)Nc1sc2c(c1-c1nc3ccccc3s1)CNC2`
Result: inactive

Ask: Please state the recorded outcome for this compound: `Oc1cc2ccccc2cc1-c1n[nH]c(=S)n1-c1ccc(Cl)cc1`
Result: inactive

Ask: Please state the recorded outcome for this compound: CCCCCCCCCC(CCCC(O)CC(=O)O)OC1OC(COC2OC(C)C(O)C(O)C2O)C(O)C(O)C1OC1OC(CO)C(O)C(O)C1OC1OC(C)C(O)C(O)C1O (stereo unspecified)
Result: inactive

Cited source for all entries: PubChem BioAssay (NCI)
